Property: kon; scope: individual binders
# SYSTEM_UNDER_TEST: T1, human Siglec15-Fc fusion protein (human, UniProt Q6ZMC9 20-263)
# T1 construct: Bought protein (Acro #SG5-H5253 is named for the selection); also called recombinant Siglec 15-Fc fusion protein (Acro #SG5-H5253); human Siglec15-Fc protein; not shown: Fc part of the bought fusion protein
# T1 sequence (looked up): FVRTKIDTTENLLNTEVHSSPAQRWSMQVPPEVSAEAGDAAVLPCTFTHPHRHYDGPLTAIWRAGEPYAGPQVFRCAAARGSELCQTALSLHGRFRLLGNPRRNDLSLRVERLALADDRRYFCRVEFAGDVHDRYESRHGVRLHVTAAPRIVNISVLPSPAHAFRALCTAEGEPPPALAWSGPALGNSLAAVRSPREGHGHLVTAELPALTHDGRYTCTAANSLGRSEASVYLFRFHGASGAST
# METHOD_SUMMARY: SPR Biacore T200; Siglec15-Fc captured on Protein A chip, scFv as analyte
Field note: include the unit after the figure.

kon measured on 2020EP032-C09 scFv (scFv, V domains shown, Tested as a single-chain scFv made in E. coli with a C-terminal flag and 6x His tag) VH: QVQLVESGGGLVKPGGSLRLSCAASGFSFNNAWMSWVRQAPGKGLEWVGRIKSKTDDATTEYAAPVEGRFTISRDDSKNMLYLQMDSLKTEDTAVYYCTTDLRWEELPMYWGQGTLVTVSS VL: VIWMTQSPSSLSASVGDRVTITCRASQGIRNDLGWYQQKPGKAPKVLIYAASSLQSGVPSRFSGSGSGTDFTLTISSLQPEDFATYYCLQDYNYPQTFGQGTKVGIKR = 67600 M⁻¹ s⁻¹

kon measured on 2019EP47-A02 scFv (scFv, V domains shown, Tested as a single-chain scFv made in E. coli with a C-terminal flag and 6x His tag) VH: EVQLVQSGGGVVQPGRSLRLSCAASGFTFSSYAMHWVRQAPGKGLEWVAVISYDGSNKYYADSVKGRFTISRDNSKNTLYLQMNSLRAEDTAVYYCARSRYSSSLRRYYGMDVWGQGTTVTVSS VL: AIQLTQSPSSLSASVGDRVTITCQATHDIANYLNWYQQKPGKAPKLLIYAASNLETGVPSRFSGSGSGTDFTFAISSLQPEDIAVYYCQQYDNLPLTFGGGTKVEIK = 28700 M⁻¹ s⁻¹

***
kon measured on 2020EP032-A12 scFv (scFv, V domains shown, Tested as a single-chain scFv made in E. coli with a C-terminal flag and 6x His tag) VH: QMQLVQSGGGVVQPGRSLRLSCAASGFTFSSYGMHWVRQAPGKGLEWVAVISDDGSNKYYADSVKGRFTISRDNSKNTLYLQMNSLRAEDTAVYYCAKKDVATILFDNWGQGTLVTVSS VL: VIWMTQSPSTLSASVGDRVTITCRASQSITRWLAWYQQKPGKAPKLLIYKTSDLDGGVPSRFSGSESGAEFTLTISSLQPDDVATYFCQHYNTRSWTFGQGTKVELK = 130000 M⁻¹ s⁻¹

Cited source: patent US20240336683A1
